# Tested on: primary human hepatic stellate cells (donor 1)
# RUN DESCRIPTION: scaled lipid accumulation score (0 = DMSO-like, 1 = nortriptyline-like); higher = stronger HSC inactivation (lipid re-accumulation), active = hit call of the paper
# EXPERIMENTAL PARAMETERS: library stock concentration: 10 mM; 48 h
Screen size: about 5,800 compounds; about 620 (11%) showed activity.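 How the source made its calls: active = score above a cut-off or among the top three wells of a plate; in these data no inactive exceeds 0.85.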 Shown is part of a subset that was picked to be rich in actives.
Thanks in advance; please answer with one of these: active, inactive

INPUT: Dear colleague, could you share the recorded outcome for NC(=O)N1c2ccccc2C=Cc2ccccc21 when you have a moment?
OUTPUT: inactive

INPUT: Likewise for CN1CCN(CCCN2c3ccccc3Sc3ccc(Cl)cc32)CC1 [Prochlorperazine dimaleate] ?
OUTPUT: inactive

INPUT: Repeat for the following compound: Cl.Cl.OCCN1CCN(CCCN2c3ccccc3C=Cc3ccccc32)CC1 [Opipramol dihydrochloride]
OUTPUT: active
